Target: human 5-HT2c receptor (Homo sapiens, UniProt P28335)
Sequence (P28335 33-458): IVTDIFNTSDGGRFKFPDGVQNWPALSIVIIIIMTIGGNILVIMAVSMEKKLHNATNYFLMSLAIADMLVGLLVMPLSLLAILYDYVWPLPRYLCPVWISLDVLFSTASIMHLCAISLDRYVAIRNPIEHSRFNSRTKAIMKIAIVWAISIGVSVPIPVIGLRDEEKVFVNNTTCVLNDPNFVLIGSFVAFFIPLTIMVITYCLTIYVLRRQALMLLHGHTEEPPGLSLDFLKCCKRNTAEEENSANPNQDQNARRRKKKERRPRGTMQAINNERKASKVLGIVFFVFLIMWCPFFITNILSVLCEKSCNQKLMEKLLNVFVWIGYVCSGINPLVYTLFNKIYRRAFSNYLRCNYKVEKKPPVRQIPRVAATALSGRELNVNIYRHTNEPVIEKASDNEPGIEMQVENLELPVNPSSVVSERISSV
Recorded Ki by entry
Response body: numeric value in nM, unit text excluded.

molecule	unit-abbreviation	Ki
FCCOc1cncc(N2CCNCC2)n1	nM	478
c1coc(-c2cncc(N3CCNCC3)n2)c1	nM	616

For c1cc(OCc2cccs2)nc(N2CCNCC2)c1 , what is its reported Ki?
92

I would be grateful if you could share the reported Ki for c1ccc(CCCCCOc2cncc(OC3CCNCC3)n2)cc1 .
37

Fill in the blank: the reported Ki of CC(Oc1cncc(N2CCNCC2)n1)c1cccc(F)c1 (stereo not drawn) is ____.
8

Data request, read-out Ki, for c1cncc(CCOc2cncc(N3CCNCC3)n2)c1
197
